System: SF-539 CNS
Assay: NCI tumour cell line growth inhibition, 48 h
Record form. Attribute: TGI. Fill in for each entry.
Kindly provide the numeric value in µM only, without the unit symbol.

### Prompt Under SF-539 CNS: TGI value of CC1=C(C(=O)NNC(=O)c2ccccc2O)CC(C(=O)NNC(=O)c2ccccc2O)=C(C)N1 ?
### Response 41.8

### Prompt And N#Cc1c2c(c(Nc3cccc(C(F)(F)F)c3)n3c1nc1ccccc13)CCCC2 ?
### Response 31

### Prompt And CCOC1Oc2ccccc2C(=O)/C1=C\Nc1ccc(C(=O)O)c(O)c1 (centres undefined) ?
### Response 59.5

### Prompt And CC(c1ccccc1)n1c2ccccc2c2c(N)ncnc21 (centres undefined) ?
### Response 30.8

### Prompt And O=C(O)c1ccc(Nc2nc3ccc(C(F)(F)F)cc3nc2-c2ccccc2)cc1 ?
### Response 90.8

----------
Tested on: U251 CNS
Record form. Attribute: GI50. Fill in for each entry.

### Prompt Please look up its GI50: COc1ccc(C(=O)/C=C/c2c(C(F)(F)F)nc3ccccn23)cc1OC
### Response 1.1 µM

### Prompt And CCOC1Oc2ccccc2C(=O)/C1=C\Nc1ccc(C(=O)O)c(O)c1 (stereo not given) ?
### Response 19.1 µM

### Prompt And CCc1c2c(nc3ccc(OC(=O)OCc4ccc(B5OC(C)(C)C(C)(C)O5)cc4)cc13)-c1cc3c(c(=O)n1C2)COC(=O)[C@]3(O)CC ?
### Response < 0.01 µM

### Prompt And NS(=O)(=O)c1ccc(-n2nc(-c3ccccc3)cc2-c2cc(O)ccc2O)cc1 ?
### Response 46.4 µM

### Prompt And COc1ccc(-c2nsc3c2NC(=O)CC3c2cccc(F)c2)cc1 (stereo not given) ?
### Response 5.55 µM

----------
Test system: U251 CNS
Test: NCI tumour cell line growth inhibition, 48 h
Mark FALSE for TGI values under 20 µM, and TRUE for everything at or above.

### Prompt Decide: is the reported value of TGI for CN1CCN(C(=O)[C@@]2(C)CC[C@]3(C)CC[C@]4(C)C(=CC[C@@H]5[C@@]6(C)CC[C@H](OC(=O)c7cccnc7)C(C)(C)[C@@H]6CC[C@]54C)[C@@H]3C2)CC1 equal to or greater than 20 µM?
### Response FALSE

### Prompt And COc1cc2cnc3c4cc(O)ccc4ccc3c2cc1OC ?
### Response TRUE

### Prompt And c1ccc(N2CCN(CCCN3CCc4c([nH]c5ccccc45)C3c3cccnc3)CC2)cc1 (stereo not drawn) ?
### Response TRUE

### Prompt And Cc1cc(C(=O)CC(Cl)=C(Cl)Cl)c(Cl)cc1Cl ?
### Response TRUE

### Prompt And O=C(N/N=C/c1cc(Cl)cc(Cl)c1[O-])c1ccccc1O.O=C(N/N=C/c1cc(Cl)cc(Cl)c1[O-])c1ccccc1O.[Fe+2] ?
### Response TRUE

### Prompt And Cc1cc(=O)n2c(cc3cccccc32)n1 ?
### Response TRUE

### Prompt And Cc1c(C(=O)/C=C/c2ccc(Cl)cc2)nnn1-c1ccnc2c(C(F)(F)F)cccc12 ?
### Response TRUE

### Prompt And CCc1c2c(nc3ccc(OC(=O)OCc4ccc(B5OC(C)(C)C(C)(C)O5)cc4)cc13)-c1cc3c(c(=O)n1C2)COC(=O)[C@]3(O)CC ?
### Response TRUE

### Prompt And CC(C)NC(=O)OCc1c(COC(=O)NC(C)C)c(-c2cc[n+](COC(=O)Cc3ccccc3)cc2)n2c1CCC2 ?
### Response TRUE

### Prompt And CCOC1Oc2ccccc2C(=O)/C1=C\Nc1ccc(C(=O)O)c(O)c1 (stereo not drawn) ?
### Response TRUE

### Prompt And Cc1cc2nc3c(C#N)c4c(c(Cl)n3c2cc1C)CCC4 ?
### Response TRUE

### Prompt And O=c1oc2c(O)c(O)cc3c(=O)oc4c(O)c(O)cc1c4c23 ?
### Response TRUE

### Prompt And O=[N+]([O-])c1cc(C(F)(F)F)cc2c1SC1=Nc3ccccc3CN12 ?
### Response TRUE

### Prompt And O=C(N/N=C/c1cc(Cl)cc(Cl)c1[O-])c1ccccc1O.O=C(N/N=C/c1cc(Cl)cc(Cl)c1[O-])c1ccccc1O.[Cu+2] ?
### Response FALSE

### Prompt And Nc1nc(N)c2c(-c3ccccc3)ccnc2n1 ?
### Response TRUE

### Prompt And C[N+]1(C)C/C(=C\C=C\c2ccccc2)C(=O)/C(=C/C=C/c2ccccc2)C1 ?
### Response FALSE

### Prompt And NS(=O)(=O)c1ccc(-n2nc(-c3ccccc3)cc2-c2cc(O)ccc2O)cc1 ?
### Response TRUE

### Prompt And CN(C)c1ccc(/C=N/n2c(CCCCc3n[nH]c(=S)n3/N=C/c3ccc(N(C)C)cc3)n[nH]c2=S)cc1 ?
### Response TRUE

----------
Test system: DLD-1 colon
Test: NCI tumour cell line growth inhibition, 48 h
ENDPOINT: TGI (µM)
Kindly provide the numeric value in µM only, without the unit symbol.

### Prompt Under DLD-1 colon: TGI value of CC1=C(N2CC2)C(=O)C(C)=C(N2CC2)C1=O ?
### Response 0.829

### Prompt And CC(/C=C1\CCC(CN(C)C)C1=O)c1cccc(Br)c1 (stereo not given) ?
### Response 35.1

----------
Tested on: HL-60(TB) leukemia
Experiment: NCI tumour cell line growth inhibition, 48 h
Record form. Attribute: TGI. Fill in for each entry.
Kindly provide the numeric value in µM only, without the unit symbol.

### Prompt Under HL-60(TB) leukemia: TGI value of O=C1NC(NNc2ccccc2)=N/C1=C\c1ccco1 ?
### Response 90.3

### Prompt And COc1ccc(C(SCCO)(c2ccc(OC)cc2)c2ccc(OC)cc2)cc1 ?
### Response 87.7

### Prompt And CN(CCCCCCCCNc1ccnc2ccccc12)Cc1ccc(-c2ccc(-c3ccc(C#N)cc3)s2)cc1 ?
### Response 2.93

### Prompt And C[C@H]1[C@H](C)CC[C@]2(C(=O)O)CCC3(COC(=O)/C=C/c4ccc(O)cc4)C(=CCC4[C@@]5(C)CC[C@H](O)C(C)(C)C5CC[C@]43C)[C@H]12 (stereo not given in full) ?
### Response 53.1

### Prompt And Cc1ccc(/C=C2\CCS(=O)(=O)c3ccccc3C2=O)cc1 ?
### Response 73.1

----------
Tested on: UO-31 renal
Test: NCI tumour cell line growth inhibition, 48 h; in the data active means GI50 below about 0.43 µM; inactive means the rest
The categories you may choose from are active, inactive

### Prompt Field: outcome | Entry: COc1ccc2c(c1)C(=O)/C(=C/c1cccc(OCC(=O)c3ccc([N+](=O)[O-])cc3)c1)CO2
### Response inactive

### Prompt And Cc1cc2oc(=O)cc(OC/C=C3/CCC(=O)O3)c2cc1C ?
### Response inactive

### Prompt And Cc1ccc2c(c1)C(=O)/C(=C/c1cccc(OCC(=O)c3ccc(Cl)cc3)c1)CS2 ?
### Response inactive

### Prompt And CCN(CC)CCOc1ccc(NC(=O)C(C(C)C)N2C(=O)/C(=C/c3ccc(Br)cc3)SC2=S)cc1 (stereo not drawn) ?
### Response inactive

### Prompt And NS(=O)(=O)c1ccc(-n2nc(-c3ccccc3)cc2-c2cc(O)ccc2O)cc1 ?
### Response inactive

### Prompt And CCCCNP1(NCCCC)=NP(NCCCC)(NCCCC)=NP(NCCCC)(NCCCC)=NP(NCCCC)(NCCCC)=N1 ?
### Response inactive

### Prompt And O=C(O)CC(S)C(=O)O.[Li+].[Sb] (stereo not drawn) ?
### Response inactive

### Prompt And NCCNc1ccc(NCCN)c2c1C(=O)c1c(O)ccc(O)c1C2=O ?
### Response active

### Prompt And Cc1nccc2c3ccc(OCc4cn(-c5ccc(Br)cc5)nn4)cc3n(CCCc3ccccc3)c12 ?
### Response inactive

### Prompt And O=C(CCN1CCCC1)Nc1ccc2c(Nc3ccc(Br)cc3)c3ccccc3nc2c1 ?
### Response inactive

### Prompt And Cc1cnc(-c2ccc(-c3ccc(NC(=O)Nc4cccc(C(F)(F)F)c4)cc3F)c3c2C(=O)NC3)[nH]1 ?
### Response inactive

### Prompt And CC1OC(OC2C(O)C(OCCc3ccc(O)c(O)c3)OC(CO)C2OC(=O)/C=C/c2ccc(O)c(O)c2)C(O)C(O)C1O (stereo not drawn) ?
### Response inactive

### Prompt And O=c1oc2ccc(I)cc2c(=O)n1-c1ccc(I)cc1F ?
### Response active

----------
Record form. Attribute: TGI. Fill in for each entry.
System: HOP-62 NSCLC
Experiment: NCI tumour cell line growth inhibition, 48 h

### Prompt Under HOP-62 NSCLC: TGI value of Cc1cc(S(=O)(=O)Nc2nnc3c(Cl)cc(C(F)(F)F)cn23)c(S)cc1Cl ?
### Response > 100 µM

### Prompt And Cc1c(C(=O)/C=C/c2ccc(Cl)cc2)nnn1-c1ccnc2c(C(F)(F)F)cccc12 ?
### Response 47.8 µM

### Prompt And CN(CCCCCCCCNc1ccnc2ccccc12)Cc1ccc(-c2ccc(-c3ccc(C#N)cc3)s2)cc1 ?
### Response 2.5 µM

### Prompt And Nc1nc(N)c2c(-c3ccccc3)ccnc2n1 ?
### Response > 100 µM

### Prompt And COC1=C(OC)C(=O)C(C/C=C/c2c(Cl)nc3sccn23)=C(C)C1=O ?
### Response 32.1 µM

### Prompt And Cc1cc(C(=O)CC(Cl)=C(Cl)Cl)c(Cl)cc1Cl ?
### Response 44.1 µM
